molecular target: UniProt:Q9Y5Y9; assay: VIPR optical membrane potential assay with electrical stimulation, NaV1.8 inhibition; details: activity against NaV 1.8 channel
Sequence (Q9Y5Y9 whole entry): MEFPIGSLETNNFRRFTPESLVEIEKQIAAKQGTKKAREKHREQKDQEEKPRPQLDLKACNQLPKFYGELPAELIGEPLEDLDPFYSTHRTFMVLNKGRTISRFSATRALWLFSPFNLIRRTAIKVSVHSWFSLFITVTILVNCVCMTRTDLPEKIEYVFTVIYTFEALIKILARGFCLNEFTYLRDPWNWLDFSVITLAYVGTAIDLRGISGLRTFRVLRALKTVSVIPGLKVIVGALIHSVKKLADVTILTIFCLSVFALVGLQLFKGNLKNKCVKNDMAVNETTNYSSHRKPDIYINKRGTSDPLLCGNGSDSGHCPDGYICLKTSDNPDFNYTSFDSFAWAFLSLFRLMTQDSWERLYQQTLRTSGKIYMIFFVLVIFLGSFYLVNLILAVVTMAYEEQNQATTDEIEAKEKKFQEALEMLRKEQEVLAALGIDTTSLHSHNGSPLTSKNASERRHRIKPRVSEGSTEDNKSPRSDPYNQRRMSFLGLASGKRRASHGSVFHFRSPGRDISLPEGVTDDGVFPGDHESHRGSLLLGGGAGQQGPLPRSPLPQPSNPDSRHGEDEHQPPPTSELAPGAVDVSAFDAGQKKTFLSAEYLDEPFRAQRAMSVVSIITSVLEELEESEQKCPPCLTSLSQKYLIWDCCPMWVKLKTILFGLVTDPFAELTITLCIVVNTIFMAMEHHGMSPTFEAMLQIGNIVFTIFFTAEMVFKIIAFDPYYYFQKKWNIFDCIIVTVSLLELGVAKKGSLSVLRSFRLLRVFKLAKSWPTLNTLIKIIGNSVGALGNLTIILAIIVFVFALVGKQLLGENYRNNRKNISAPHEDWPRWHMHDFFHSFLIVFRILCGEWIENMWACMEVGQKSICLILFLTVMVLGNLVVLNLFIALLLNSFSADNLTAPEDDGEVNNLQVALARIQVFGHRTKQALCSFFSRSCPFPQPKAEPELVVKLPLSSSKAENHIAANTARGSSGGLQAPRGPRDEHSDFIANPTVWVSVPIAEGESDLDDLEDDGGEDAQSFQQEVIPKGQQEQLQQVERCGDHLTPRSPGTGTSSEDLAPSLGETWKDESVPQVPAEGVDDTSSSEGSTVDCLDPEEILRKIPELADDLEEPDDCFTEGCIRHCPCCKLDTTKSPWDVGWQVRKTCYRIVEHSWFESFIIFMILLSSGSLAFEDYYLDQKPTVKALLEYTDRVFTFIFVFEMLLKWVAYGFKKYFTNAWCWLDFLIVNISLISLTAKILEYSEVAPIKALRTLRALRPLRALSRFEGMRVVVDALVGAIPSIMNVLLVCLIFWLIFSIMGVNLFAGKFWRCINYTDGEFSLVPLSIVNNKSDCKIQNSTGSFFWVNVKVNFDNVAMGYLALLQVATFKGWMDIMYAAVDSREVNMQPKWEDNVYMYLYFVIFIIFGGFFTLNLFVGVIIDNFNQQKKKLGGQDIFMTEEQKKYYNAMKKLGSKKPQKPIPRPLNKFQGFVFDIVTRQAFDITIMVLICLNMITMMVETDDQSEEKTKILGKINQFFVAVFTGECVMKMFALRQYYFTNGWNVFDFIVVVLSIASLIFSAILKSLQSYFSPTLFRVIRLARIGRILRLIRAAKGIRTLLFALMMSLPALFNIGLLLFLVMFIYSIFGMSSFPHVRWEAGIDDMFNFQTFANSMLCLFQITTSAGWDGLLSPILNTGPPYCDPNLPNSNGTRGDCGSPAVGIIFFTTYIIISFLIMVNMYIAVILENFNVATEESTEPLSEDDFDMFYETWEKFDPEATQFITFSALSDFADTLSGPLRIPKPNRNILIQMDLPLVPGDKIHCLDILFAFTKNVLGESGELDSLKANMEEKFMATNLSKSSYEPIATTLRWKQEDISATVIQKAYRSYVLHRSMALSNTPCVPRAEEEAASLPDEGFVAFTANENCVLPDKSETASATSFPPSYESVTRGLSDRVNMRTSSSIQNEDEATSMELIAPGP
Property: IC50

Take a look at these entries with their results.
Line notation: CC(C)OC(=O)N[C@@H]1CCN(c2nc(-c3ccccc3O)nc3ccc(F)cc23)C1
Value observed: 1 to 5 µM
--
Line notation: CCCOC(=O)N[C@@H]1CCN(c2nc(-c3c(O)cccc3F)nc3cc(C)ccc23)C1
Value observed: < 1 µM
--
Line notation: Cc1ccc2c(N3CC[C@H](NC(=O)OCC(C)C)C3)nc(-c3ccccc3O)nc2c1
Value observed: 1 to 5 µM

Hey, quick one: what's IC50 for each of these?
1. Cc1ccc2c(N3CC[C@@H](NC(=O)OCC(C)C)C3)nc(-c3ccccc3C(F)F)nc2c1
2. Cc1ccc2c(N3CC[C@@H](NC(=O)OCC(C)C)C3)nc(-c3ccccc3O)nc2c1

## Output
1: < 1 µM; 2: < 1 µM

Count: 3. Required value per item: IC50.
1. Cc1ccc2c(N3CC[C@@H](NC(=O)OCC(C)(C)C)C3)nc(-c3c(O)cccc3F)nc2c1
2. CCOC(=O)N[C@@H]1CCN(c2nc(-c3c(O)cccc3F)nc3cc(C)ccc23)C1
3. Cc1ccc2c(N3CC[C@@H](NC(=O)OCC(C)C)C3)nc(-c3c(O)cccc3F)nc2c1

## Output
1: < 1 µM; 2: 1 to 5 µM; 3: < 1 µM
